Target: Leukotriene C4 synthase (Cavia porcellus, UniProt A6XA80);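 note: enzyme inhibition assay of leukotriene C4 synthase, using LTA4 as the substrate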; note: in other assays of this panel Not Active means under 50% inhibition at 10 µM
Sequence (A6XA80 whole entry): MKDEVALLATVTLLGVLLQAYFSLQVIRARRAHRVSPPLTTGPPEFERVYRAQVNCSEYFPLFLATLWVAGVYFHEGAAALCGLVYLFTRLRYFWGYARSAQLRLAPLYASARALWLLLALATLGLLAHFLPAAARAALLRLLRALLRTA
Type: tissue-based, Lung

[
  {
    "substance": "COLISTIN",
    "IC50": "Not Active"
  },
  {
    "substance": "COBALTOUS CHLORIDE",
    "IC50": "Not Active"
  },
  {
    "substance": "TRANSPLATIN",
    "IC50": "Not Active"
  },
  {
    "substance": "ZIRCONIUM(IV) CHLORIDE",
    "IC50": "Not Active"
  }
]

====

Assay: DRUGMATRIX: Calcium Channel Type L, Phenylalkylamine radioligand binding (ligand: [3H] (-)-Desmethoxyverapamil (D-888))
Format: cell membranes, Rattus norvegicus, Wistar, Brain, Membrane
Settings: Not Active = under 50% inhibition at 10 µM
recorded.metric: IC50

[
  {
    "substance": "ZIRCONIUM(IV) CHLORIDE",
    "recorded.metric": "IC50",
    "result": "Not Active"
  },
  {
    "substance": "COLISTIN",
    "recorded.metric": "IC50",
    "result": "Not Active"
  },
  {
    "substance": "COBALTOUS CHLORIDE",
    "recorded.metric": "IC50",
    "result": "Not Active"
  },
  {
    "substance": "TRANSPLATIN",
    "recorded.metric": "IC50",
    "result": "Not Active"
  }
]

====

Target: Glucocorticoid receptor (Homo sapiens, UniProt P04150); note: in other assays of this panel Not Active means under 50% inhibition at 10 µM
Sequence (P04150 whole entry): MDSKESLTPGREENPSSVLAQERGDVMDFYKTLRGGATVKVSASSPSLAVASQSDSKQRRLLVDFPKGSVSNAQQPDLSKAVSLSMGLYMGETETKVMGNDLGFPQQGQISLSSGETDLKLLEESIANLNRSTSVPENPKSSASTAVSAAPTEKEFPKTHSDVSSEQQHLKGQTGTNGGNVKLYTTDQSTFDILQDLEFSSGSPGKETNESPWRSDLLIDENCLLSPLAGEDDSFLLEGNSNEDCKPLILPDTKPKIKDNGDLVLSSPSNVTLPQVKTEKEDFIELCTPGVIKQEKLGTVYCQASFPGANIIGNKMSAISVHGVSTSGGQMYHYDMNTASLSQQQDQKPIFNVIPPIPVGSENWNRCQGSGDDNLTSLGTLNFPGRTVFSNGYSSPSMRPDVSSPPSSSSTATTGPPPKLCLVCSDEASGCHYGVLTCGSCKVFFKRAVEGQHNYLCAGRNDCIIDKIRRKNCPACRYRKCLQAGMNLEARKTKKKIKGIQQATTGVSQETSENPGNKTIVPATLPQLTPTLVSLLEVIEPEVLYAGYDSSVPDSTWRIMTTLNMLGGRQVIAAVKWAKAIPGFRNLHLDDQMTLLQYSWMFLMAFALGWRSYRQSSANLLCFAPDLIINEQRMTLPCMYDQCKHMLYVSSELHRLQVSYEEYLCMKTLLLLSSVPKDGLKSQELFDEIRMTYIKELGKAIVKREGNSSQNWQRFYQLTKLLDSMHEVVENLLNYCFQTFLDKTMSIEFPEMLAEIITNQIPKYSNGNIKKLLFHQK
Experiment: biochemical
recorded.metric: pIC50
Friendly reminder that pIC50 comes from taking -log10 of the concentration in mol/L.

Below are worked cases with known answers.
[
  {
    "molecule": "C#C[C@]1(O)CC[C@H]2[C@@H]3CCC4=CC(=O)CC[C@]4(C)[C@H]3CC[C@@]21C",
    "test.system": "Glucocorticoid receptor (Homo sapiens, UniProt P04150)",
    "pIC50": 6.68
  },
  {
    "molecule": "CC(=O)OCC(=O)[C@@]12OC(C)(C)O[C@@H]1C[C@H]1[C@@H]3C[C@H](F)C4=CC(=O)C=C[C@]4(C)[C@@]3(F)[C@@H](O)C[C@@]12C [FLUOCINONIDE]",
    "test.system": "Glucocorticoid receptor (Homo sapiens, UniProt P04150)",
    "pIC50": 8.28
  }
]

*Q* Data request, read-out pIC50, for C[C@]12CC[C@@H]3c4ccc(O)cc4CC[C@H]3[C@@H]1C[C@@H](O)[C@@H]2O
*A* 4.41

*Q* For C[C@]12C=CC(=O)C=C1CC[C@H]1[C@@H]3C[C@@H](O)[C@](O)(C(=O)CO)[C@@]3(C)C[C@H](O)[C@@]12F , what is its reported pIC50?
*A* 7.24

====

Assay: DRUGMATRIX: Leukotriene, BLT (LTB4) radioligand binding (ligand: [3H]LTB4)
Assay type: cell membranes, Membrane
Conditions: u-937; Not Active = under 50% inhibition at 10 µM
recorded.metric: Ki

[
  {
    "molecule": "O=C(c1ccccc1F)N1CCC(Cc2ccccc2)CC1",
    "Ki": "Not Active"
  },
  {
    "molecule": "CC(=O)OCC(=O)[C@@]1(O)CC[C@H]2[C@@H]3CCC4=CC(=O)CC[C@]4(C)[C@@]3(F)[C@@H](O)C[C@@]21C [FLUDROCORTISONE ACETATE]",
    "Ki": "Not Active"
  },
  {
    "molecule": "O=C(O)P(=O)(O)O",
    "Ki": "Not Active"
  },
  {
    "molecule": "CC(=O)OC[C@H]1O[C@@H](n2ncc(=O)[nH]c2=O)[C@H](OC(C)=O)[C@@H]1OC(C)=O",
    "Ki": "Not Active"
  },
  {
    "molecule": "CC(=O)Oc1ccccc1C(=O)O",
    "Ki": "Not Active"
  },
  {
    "molecule": "COc1ccnc(C[S+]([O-])c2nc3ccc(OC(F)F)cc3[nH]2)c1OC (stereo not drawn)",
    "Ki": "Not Active"
  },
  {
    "molecule": "C[C@@H]1O[C@@H](O[C@H]2C[C@@H](O)[C@]3(CO)[C@H]4[C@H](O)C[C@]5(C)[C@@H](C6=CC(=O)OC6)CC[C@]5(O)[C@@H]4CC[C@]3(O)C2)[C@H](O)[C@H](O)[C@H]1O",
    "Ki": "Not Active"
  }
]

Could you now look at the following molecule, please?
*Q* Could you share which Ki value was measured for Nc1ccc(S(=O)(=O)NC(=O)c2ccccc2)cc1 [SULFABENZAMIDE] ?
*A* Not Active

====

Target: 5-hydroxytryptamine receptor 6 (Homo sapiens, UniProt P50406); note: in other assays of this panel Not Active means under 50% inhibition at 10 µM
Sequence (P50406 whole entry): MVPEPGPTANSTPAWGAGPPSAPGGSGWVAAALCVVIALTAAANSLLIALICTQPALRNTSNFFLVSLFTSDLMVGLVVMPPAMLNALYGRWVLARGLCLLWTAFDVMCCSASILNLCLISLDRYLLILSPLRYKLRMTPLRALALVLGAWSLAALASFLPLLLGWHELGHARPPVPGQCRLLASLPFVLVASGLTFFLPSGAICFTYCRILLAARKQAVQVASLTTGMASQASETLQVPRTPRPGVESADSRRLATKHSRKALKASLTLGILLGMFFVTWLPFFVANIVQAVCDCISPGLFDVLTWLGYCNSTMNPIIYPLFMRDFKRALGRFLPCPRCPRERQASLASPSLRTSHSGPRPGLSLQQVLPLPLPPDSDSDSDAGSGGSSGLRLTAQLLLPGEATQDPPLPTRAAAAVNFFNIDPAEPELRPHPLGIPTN
Type: cell membranes, HeLa, Membrane
Settings: read-out: Ki
pKi: −log10 of the molar value.
Mark Fulfilled for reported pKi of 6 or greater; mark Not fulfilled for anything smaller.

[
  {
    "compound": "CC(C)C[C@H]1C(=O)N2CCC[C@H]2[C@]2(O)O[C@](NC(=O)[C@@H]3C=C4c5cccc6[nH]cc(c56)C[C@H]4N(C)C3)(C(C)C)C(=O)N12 [ERGOCRYPTINE]",
    "label.class": "Fulfilled"
  },
  {
    "compound": "CN1CCC(=C2c3ccccc3CC(=O)c3sccc32)CC1 [KETOTIFEN]",
    "label.class": "Fulfilled"
  },
  {
    "compound": "CC(C)NC[C@H](O)COc1cccc2ccccc12 [LEVOPROPRANOLOL]",
    "label.class": "Fulfilled"
  }
]

Here's the next entry for you.
*Q* Confirm if pKi reported for the compound Clc1ccc(COC(Cn2ccnc2)c2ccc(Cl)cc2Cl)c(Cl)c1 (stereo unspecified) [MICONAZOLE] is 6 or above.
*A* Not fulfilled

====

Assay: DRUGMATRIX: beta-Lactamase enzyme inhibition (substrate: Nitrocefin)
Design: species or system Bacillus cereus
Conditions: Not Active = under 50% inhibition at 10 µM
recorded.metric: IC50

Solved cases (5 shown):
[
  {
    "molecule": "COc1ccnc(C[S+]([O-])c2nc3ccc(OC(F)F)cc3[nH]2)c1OC (stereo not drawn)",
    "IC50": "Not Active"
  },
  {
    "molecule": "CCCCC1=NC2(CCCC2)C(=O)N1Cc1ccc(-c2ccccc2-c2nnn[nH]2)cc1",
    "IC50": "Not Active"
  },
  {
    "molecule": "COC(=O)[C@H]1[C@H]2C[C@@H]3c4[nH]c5cc(OC)ccc5c4CCN3C[C@H]2C[C@@H](OC(=O)c2cc(OC)c(OC)c(OC)c2)[C@@H]1OC",
    "IC50": "Not Active"
  },
  {
    "molecule": "C[C@]12C=CC(=O)C=C1CC[C@H]1[C@@H]3C[C@@H](O)[C@](O)(C(=O)CO)[C@@]3(C)C[C@H](O)[C@@]12F",
    "IC50": "Not Active"
  },
  {
    "molecule": "COC(=O)Nc1nc2cc(C(=O)c3ccc(F)cc3)ccc2[nH]1",
    "IC50": "Not Active"
  }
]

*Q* Name the recorded IC50 for O=c1c(-c2ccc(O)cc2)coc2cc(O)cc(O)c12 .
*A* Not Active

*Q* I am curious: what IC50 value has been reported for CCN(C(C)=O)c1cccc(-c2ccnc3c(C#N)cnn23)c1 ?
*A* Not Active

*Q* Can you look up the measured IC50 of CC(=O)OCC(COC(C)=O)OC(C)=O for me?
*A* Not Active

====

Target: Melanocortin receptor 3 (Homo sapiens, UniProt P41968); note: in other assays of this panel Not Active means under 50% inhibition at 10 µM
Sequence (P41968 whole entry): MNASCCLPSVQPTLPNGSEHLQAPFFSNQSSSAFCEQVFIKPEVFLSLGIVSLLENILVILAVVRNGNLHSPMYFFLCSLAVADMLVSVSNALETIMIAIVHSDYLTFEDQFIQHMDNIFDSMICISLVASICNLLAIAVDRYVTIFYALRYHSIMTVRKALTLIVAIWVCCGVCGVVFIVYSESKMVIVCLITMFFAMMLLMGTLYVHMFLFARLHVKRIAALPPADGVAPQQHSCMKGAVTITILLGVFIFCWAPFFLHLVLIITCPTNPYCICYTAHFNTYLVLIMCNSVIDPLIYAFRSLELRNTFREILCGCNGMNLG
Assay type: cell membranes, Membrane
Conditions: hek293; read-out: Ki
recorded.metric: Ki (nM)
Answer format: numeric, nM implied, no suffix.

*Q* Query the reported Ki for Melanocortin receptor 3 (Homo sapiens, UniProt P41968); item: COLISTIN
*A* 168

====

Biological target: Insulin receptor (Rattus norvegicus); note: in other assays of this panel Not Active means under 50% inhibition at 10 µM
Sequence (P15127 27-759 limits assumed): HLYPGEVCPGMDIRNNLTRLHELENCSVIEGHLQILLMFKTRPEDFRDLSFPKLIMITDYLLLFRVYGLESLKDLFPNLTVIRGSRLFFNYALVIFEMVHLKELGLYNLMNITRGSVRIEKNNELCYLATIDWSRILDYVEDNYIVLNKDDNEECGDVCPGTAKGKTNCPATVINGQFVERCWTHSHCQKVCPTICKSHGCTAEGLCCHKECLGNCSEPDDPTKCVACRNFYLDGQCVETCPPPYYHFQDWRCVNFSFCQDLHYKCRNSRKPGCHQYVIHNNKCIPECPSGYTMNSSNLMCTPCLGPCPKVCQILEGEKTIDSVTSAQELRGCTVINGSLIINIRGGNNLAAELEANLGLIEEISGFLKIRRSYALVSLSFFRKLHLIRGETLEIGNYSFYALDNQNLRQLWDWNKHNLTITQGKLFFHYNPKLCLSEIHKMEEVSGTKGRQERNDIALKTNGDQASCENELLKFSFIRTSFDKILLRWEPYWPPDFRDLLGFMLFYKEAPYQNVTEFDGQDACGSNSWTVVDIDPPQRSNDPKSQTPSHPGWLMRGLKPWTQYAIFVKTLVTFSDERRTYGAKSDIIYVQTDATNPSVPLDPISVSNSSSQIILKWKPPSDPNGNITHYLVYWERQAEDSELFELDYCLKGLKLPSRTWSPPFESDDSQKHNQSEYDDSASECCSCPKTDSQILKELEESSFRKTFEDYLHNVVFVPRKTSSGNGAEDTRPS
Sequence (P15127 764-1383 limits assumed): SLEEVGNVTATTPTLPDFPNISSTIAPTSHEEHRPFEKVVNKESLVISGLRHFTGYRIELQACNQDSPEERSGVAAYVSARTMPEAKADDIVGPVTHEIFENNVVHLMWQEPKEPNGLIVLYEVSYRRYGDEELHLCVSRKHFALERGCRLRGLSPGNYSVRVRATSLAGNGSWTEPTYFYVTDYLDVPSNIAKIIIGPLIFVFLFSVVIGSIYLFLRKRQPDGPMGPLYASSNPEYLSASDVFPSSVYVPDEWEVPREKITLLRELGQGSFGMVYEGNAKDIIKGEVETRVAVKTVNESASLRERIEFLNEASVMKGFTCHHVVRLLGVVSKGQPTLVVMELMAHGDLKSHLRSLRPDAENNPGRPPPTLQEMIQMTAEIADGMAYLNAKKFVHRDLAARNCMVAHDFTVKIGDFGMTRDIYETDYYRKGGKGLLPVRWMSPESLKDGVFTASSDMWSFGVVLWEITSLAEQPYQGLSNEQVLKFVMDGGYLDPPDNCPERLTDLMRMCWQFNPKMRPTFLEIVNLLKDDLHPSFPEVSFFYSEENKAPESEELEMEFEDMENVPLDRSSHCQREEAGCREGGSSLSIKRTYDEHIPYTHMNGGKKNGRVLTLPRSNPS
Type: cell membranes, Wistar, Liver, Membrane

[
  {
    "substance": "TRANSPLATIN",
    "test.system": "Insulin receptor (Rattus norvegicus)",
    "Ki": "Not Active"
  },
  {
    "substance": "ZIRCONIUM(IV) CHLORIDE",
    "test.system": "Insulin receptor (Rattus norvegicus)",
    "Ki": "Not Active"
  },
  {
    "substance": "COLISTIN",
    "test.system": "Insulin receptor (Rattus norvegicus)",
    "Ki": "Not Active"
  },
  {
    "substance": "COBALTOUS CHLORIDE",
    "test.system": "Insulin receptor (Rattus norvegicus)",
    "Ki": "Not Active"
  }
]

====

Assay: DRUGMATRIX: GABAA, Muscimol, Central radioligand binding (ligand: [3H] Muscimol)
Assay type: cell membranes, Rattus norvegicus, Wistar, Brain, Membrane
Details: Not Active = under 50% inhibition at 10 µM
recorded.metric: IC50

[
  {
    "substance": "ZIRCONIUM(IV) CHLORIDE",
    "result": "Not Active"
  },
  {
    "substance": "TRANSPLATIN",
    "result": "Not Active"
  },
  {
    "substance": "COLISTIN",
    "result": "Not Active"
  },
  {
    "substance": "COBALTOUS CHLORIDE",
    "result": "Not Active"
  }
]

Ref: ChEMBL document CHEMBL1909046
